Assay: NCI Yeast Anticancer Drug Screen. Data for the rad50 strain (AID 155);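 note: 0% = growth of vehicle-only cultures of the same strain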
Conditions: S. cerevisiae rad50 strain growth inhibition; at 50.0 µM; active compounds read high
This is part of a sample that, as a whole, favours compounds with a hit. Of some 79,000 tested, about 15% had one in any assay.
Assignment: determine reported growth inhibition for the given molecules.
Provide the reading as a plain figure in %.

### Prompt Recorded growth inhibition for Cc1ccc(S(=O)(=O)OC2CCC(C(C)(C)C)C(Cl)C2)cc1 (stereo unspecified) , please?
### Response -8

### Prompt Recorded growth inhibition for CCOC1(OCC)C2(Cl)C(Cl)=C(Cl)C1(Cl)C1CCCC12 (stereo unspecified) , please?
### Response 23.7

### Prompt Recorded growth inhibition for N#C/C(=C1\N=C(c2ccccc2O)Oc2ccccc21)c1ccc([N+](=O)[O-])cc1 , please?
### Response 6.85

### Prompt Recorded growth inhibition for Cc1cc(=O)c2ccccc2o1 , please?
### Response -5.15

### Prompt Recorded growth inhibition for O=S1(=O)C2CCC(Br)C1CCC2Br (stereo unspecified) , please?
### Response 9.65

### Prompt Recorded growth inhibition for NC1C(O)C(N)C(O)C(O)C1O (stereo unspecified) , please?
### Response 3.3

### Prompt Recorded growth inhibition for OCC(O)C(O)C(OC1OC(CO)C(O)C(O)C1O)C(O)CO (stereo unspecified) , please?
### Response -1.05

### Prompt Recorded growth inhibition for Nc1nc2ncc(=O)[nH]c2c(=O)[nH]1 , please?
### Response -35.1

### Prompt Recorded growth inhibition for Cc1ccc(C)c(CNC(=O)Nc2ccccc2Cl)c1 , please?
### Response 12.4

### Prompt Recorded growth inhibition for COc1ccc2c(c1)C(=O)[C@@](Nc1ccc(C=O)cc1)(OC)[C@@](OC)(c1ccc([N+](=O)[O-])cc1)O2 , please?
### Response 9.3

### Prompt Recorded growth inhibition for O=C1OC(CC(=O)c2ccc(Cl)c(Cl)c2)C(Cl)=C1Cl (stereo unspecified) , please?
### Response 43.1

---

Assay: NCI Yeast Anticancer Drug Screen. Data for the bub3 strain (AID 167)
Conditions: S. cerevisiae bub3 mutant strain, at 50.0 µM, active compounds read high
About 79,000 compounds went through this panel and 15% of them were active in at least one assay; those are over-represented in the sample as a whole. Calls of active or inactive are those of the source. Rule as the data show it: active = growth inhibition above about 70%; inactive = the rest.
Assignment: determine reported growth inhibition for the given molecules.

### Prompt Recorded growth inhibition for CCOC(=O)C(O)C(O)C(O)C(O)C(=O)OCC (centres undefined) , please?
### Response -7.7% (inactive)

### Prompt Recorded growth inhibition for COc1ccc(N2C(=O)CSC2c2c[nH]c3ccccc23)cc1 (centres undefined) , please?
### Response -44% (inactive)

### Prompt Recorded growth inhibition for CCN(CC)CCOC(=O)c1ccc(N=Nc2ccc(O)cc2)cc1 , please?
### Response 1% (inactive)

### Prompt Recorded growth inhibition for Cc1cc(N/N=C/c2ccc(Cl)cc2)c2cc3c(cc2n1)OCO3 , please?
### Response 27.5% (inactive)

### Prompt Recorded growth inhibition for Cc1cccc2c(SCCCCCCSc3c4ccccc4nc4c(C)cccc34)c3ccccc3nc12 , please?
### Response -2.7% (inactive)

### Prompt Recorded growth inhibition for COc1cc(C=Nc2ccc(C(C)C)cc2)cc(OC)c1OC , please?
### Response -4.65% (inactive)

### Prompt Recorded growth inhibition for CC(=O)Nc1ccc(S(=O)(=O)NC2(C)C(=O)N(C)C(=O)N(C)C2=O)cc1 , please?
### Response 3.15% (inactive)

### Prompt Recorded growth inhibition for CC1OC(CO)C2OC(C)OCC2O1 (centres undefined) , please?
### Response 5.75% (inactive)

### Prompt Recorded growth inhibition for CCOC(=O)c1cc2cc(Cc3ccc4[nH]c(C(=O)OCC)cc4c3)ccc2[nH]1 , please?
### Response -32.2% (inactive)

### Prompt Recorded growth inhibition for C1#CCSCC#CCSC1 , please?
### Response 40% (inactive)

### Prompt Recorded growth inhibition for NC(=O)c1cccc[n+]1[O-] , please?
### Response 19.6% (inactive)

### Prompt Recorded growth inhibition for COc1c(OCC(O)CN2CCCCC2)c2c(C)coc2c2ccoc12 (centres undefined) , please?
### Response 4.15% (inactive)

### Prompt Recorded growth inhibition for CCCCCCCCCCCCCCCCCCOCCCCCCCCCCCC , please?
### Response 5.05% (inactive)

### Prompt Recorded growth inhibition for C=C1C(=O)OC2/C=C(\C)C(O)C/C=C(/C)C(OC(=O)/C(C)=C\C)C(O)C12 (centres undefined) , please?
### Response -12.8% (inactive)

### Prompt Recorded growth inhibition for Cc1ccccc1NC(=S)N1CCOCC1 , please?
### Response 14.2% (inactive)

### Prompt Recorded growth inhibition for O=C1Sc2ccccc2C(=O)N2CCCC12 (centres undefined) , please?
### Response 8.2% (inactive)

### Prompt Recorded growth inhibition for On1c(-c2ccccc2)c(-c2c(-c3ccccc3)n(O)c3ccccc23)c2ccccc21 , please?
### Response -7.6% (inactive)

### Prompt Recorded growth inhibition for CCCCCCCCCC1OCCC(C)O1 (centres undefined) , please?
### Response 9.5% (inactive)

### Prompt Recorded growth inhibition for CN1CCC(C(O)c2ccccc2)CC1 (centres undefined) , please?
### Response 3.95% (inactive)

### Prompt Recorded growth inhibition for NC(=O)c1csc(NC2OC(CO)C(O)C(O)C2O)n1 (centres undefined) , please?
### Response -0.25% (inactive)

### Prompt Recorded growth inhibition for C=CCN1C(C)(C)NC(=S)C1(C)C , please?
### Response -6% (inactive)

### Prompt Recorded growth inhibition for CCN(CC)CCN1C(=O)c2cccc3c(N)c(OC)cc(c23)C1=O , please?
### Response -24.2% (inactive)

### Prompt Recorded growth inhibition for Cc1[nH]c(=O)[nH]c(=O)c1C(=O)N(CCO)Cc1ccccc1 , please?
### Response 11.7% (inactive)

### Prompt Recorded growth inhibition for COC(=O)[C@]1(C)CCC[C@]2(C)C3=C[C@@H](O)[C@@]4(C(C)C)O[C@H]4[C@]3(O)CC[C@@H]12 , please?
### Response -8.25% (inactive)

### Prompt Recorded growth inhibition for CCC(O)(C#CCl)CC , please?
### Response -29.1% (inactive)

### Prompt Recorded growth inhibition for CC(=O)OCC1OC(OC(C)=O)C(NC(=O)CN(Cc2ccccc2)S(C)(=O)=O)C(OC(C)=O)C1OC(C)=O (centres undefined) , please?
### Response 0.35% (inactive)

### Prompt Recorded growth inhibition for CCOc1ccc(N2CC(=O)N3CCCC(c4ccccc4)N3C(=O)C2)cc1 (centres undefined) , please?
### Response 12.1% (inactive)

### Prompt Recorded growth inhibition for CC(=O)N(C(C)=O)N1C(=O)C2C3C=CC(C4CC34)C2C1=O (centres undefined) , please?
### Response 2.95% (inactive)

### Prompt Recorded growth inhibition for Cc1ccc(Cl)c(NC(=O)c2ccccc2Cl)c1 , please?
### Response 12.4% (inactive)

### Prompt Recorded growth inhibition for O=C1Nc2ccccc2C2Cc3c([nH]c4ccccc34)CC12 (centres undefined) , please?
### Response 7.4% (inactive)

### Prompt Recorded growth inhibition for COC(=O)c1ccc(F)cc1 , please?
### Response -51.6% (inactive)

### Prompt Recorded growth inhibition for CCCC(O)c1ccccc1 (centres undefined) , please?
### Response 3.7% (inactive)

### Prompt Recorded growth inhibition for CC1(C)OC(=O)N=C1c1ccc(Cl)cc1 , please?
### Response -20% (inactive)

### Prompt Recorded growth inhibition for CCOC1(OCC)CCC2(CC1)c1ccccc1-c1ccccc12 , please?
### Response -7.45% (inactive)

### Prompt Recorded growth inhibition for CCCCCCCCCCCCn1[nH]c(C)c(C(=S)SCCCCCCCC)c1=O , please?
### Response 3% (inactive)

### Prompt Recorded growth inhibition for COC(=O)C1=CC2C(C1)C1CC2C(OC(C)=O)C1N(C)C (centres undefined) , please?
### Response 6.35% (inactive)

### Prompt Recorded growth inhibition for Cc1c(C)c(CSC#N)c(C)c(C)c1CSC#N , please?
### Response 8.2% (inactive)

### Prompt Recorded growth inhibition for CCC(CC)C(=O)NC(=O)NC(N)=O , please?
### Response 6.55% (inactive)

### Prompt Recorded growth inhibition for COc1cccc(OC)c1OCC1CO1 (centres undefined) , please?
### Response 2.3% (inactive)

### Prompt Recorded growth inhibition for O=c1c2ccccc2c2cc3nc4ccc([N+](=O)[O-])cc4c(=O)n3c3cccc1c23 , please?
### Response -4.9% (inactive)

### Prompt Recorded growth inhibition for CC(C)CC(NC(=O)OC(C)(C)C)C(=O)NC(Cc1c[nH]c2ccccc12)C(=O)NN (centres undefined) , please?
### Response 0.75% (inactive)

### Prompt Recorded growth inhibition for CC(=O)Nc1ccc(OC2=CCN(C)CC2)cc1 , please?
### Response 11.1% (inactive)

### Prompt Recorded growth inhibition for COc1cccc2c(=O)c3c(oc12)CCC(C)C3 (centres undefined) , please?
### Response -14.8% (inactive)

### Prompt Recorded growth inhibition for NC(=O)C(CCN1CCCCC1)c1ccccc1 (centres undefined) , please?
### Response 5.45% (inactive)

### Prompt Recorded growth inhibition for CCCCCCOC(=O)CCCCCC1CCCCC1 , please?
### Response -6.05% (inactive)

### Prompt Recorded growth inhibition for Cc1cc(=O)[nH]c(NN2C(Cl)C(=O)C2c2c(O)ccc3ccccc23)n1 (centres undefined) , please?
### Response 0.7% (inactive)

### Prompt Recorded growth inhibition for CC(C)CCCC(C)C1CCC2C3CCC4CC(N5CCCCC5)CCC4(C)C3CCC12C (centres undefined) , please?
### Response 4.55% (inactive)

### Prompt Recorded growth inhibition for C1CCCN(/N=N/N2CCCCCC2)CC1 , please?
### Response 10.8% (inactive)

### Prompt Recorded growth inhibition for CN1C=CC(=Cc2ccccc2)C=C1 , please?
### Response -10.8% (inactive)
